# protocol-details: Cytotoxicity against human 518A2 cells after 96 hrs by SRB assay
# Format: functional, cell-based
# condition-parameters: Homo sapiens, 518A2, 96 h; read-out: EC50
measurement-label: pEC50
// pEC50 here means minus log10 of the molar concentration (mol/L)

Prompt line: Requested read-out: pEC50. Entry: `C=C(C)[C@@H]1CC[C@]2(C(=O)N(C)OC)CC[C@]3(C)[C@H](CC[C@@H]4[C@@]5(C)CC[C@H](O)C(C)(C)[C@@H]5CC[C@]43C)[C@@H]12`
Response line: 5.14

Prompt line: Requested read-out: pEC50. Entry: `C=C(C)[C@@H]1CC[C@]2(COC(=O)NCCC)CC[C@]3(C)[C@H](CC[C@@H]4[C@@]5(C)CC[C@H](O)C(C)(C)[C@@H]5CC[C@]43C)[C@@H]12`
Response line: 4.80

Prompt line: Requested read-out: pEC50. Entry: `C=C(C)[C@@H]1CC[C@]2(C(=O)NOC)CC[C@]3(C)[C@H](CC[C@@H]4[C@@]5(C)CC[C@H](O)C(C)(C)[C@@H]5CC[C@]43C)[C@@H]12`
Response line: 5.24

Prompt line: Requested read-out: pEC50. Entry: `C=C(C)[C@@H]1CC[C@]2(C(N)=O)CC[C@]3(C)[C@H](CC[C@@H]4[C@@]5(C)CC[C@H](OC(C)=O)C(C)(C)[C@@H]5CC[C@]43C)[C@@H]12`
Response line: 4.87

Prompt line: Requested read-out: pEC50. Entry: `C=C(C)[C@@H]1CC[C@]2(C(=O)NOC)CC[C@]3(C)[C@H](CC[C@@H]4[C@@]5(C)CC[C@H](OC(C)=O)C(C)(C)[C@@H]5CC[C@]43C)[C@@H]12`
Response line: 5.10

Prompt line: Requested read-out: pEC50. Entry: `C=C(C)[C@@H]1CC[C@]2(C(=O)N(C)O)CC[C@]3(C)[C@H](CC[C@@H]4[C@@]5(C)CCC(=O)C(C)(C)[C@@H]5CC[C@]43C)[C@@H]12`
Response line: 5.20

Prompt line: Requested read-out: pEC50. Entry: C=C(C)[C@@H]1CC[C@]2(COC(=O)NCC)CC[C@]3(C)[C@H](CC[C@@H]4[C@@]5(C)CC[C@H](OC(=O)NCC)C(C)(C)[C@@H]5CC[C@]43C)[C@@H]12 [BIS(ETHYLCARBAMATE)BETULIN]
Response line: 4.90

Prompt line: Requested read-out: pEC50. Entry: `C=C(C)[C@@H]1CC[C@]2(C(=O)NCc3ccccc3)CC[C@]3(C)[C@H](CC[C@@H]4[C@@]5(C)CC[C@H](OC(C)=O)C(C)(C)[C@@H]5CC[C@]43C)[C@@H]12`
Response line: 5.21

Prompt line: Requested read-out: pEC50. Entry: `C=C(C)[C@@H]1CC[C@]2(COC(=O)NCC)CC[C@]3(C)[C@H](CC[C@@H]4[C@@]5(C)CC[C@H](O)C(C)(C)[C@@H]5CC[C@]43C)[C@@H]12`
Response line: 4.90

Prompt line: Requested read-out: pEC50. Entry: `C=C(C)[C@@H]1CC[C@]2(C(=O)NO)CC[C@]3(C)[C@H](CC[C@@H]4[C@@]5(C)CC[C@H](OC(C)=O)C(C)(C)[C@@H]5CC[C@]43C)[C@@H]12`
Response line: 5.80

Prompt line: Requested read-out: pEC50. Entry: `C=CCONC(=O)[C@]12CC[C@@H](C(=C)C)[C@@H]1[C@H]1CC[C@@H]3[C@@]4(C)CC[C@H](O)C(C)(C)[C@@H]4CC[C@@]3(C)[C@]1(C)CC2`
Response line: 5.17

====

For each record, write down the corresponding EC50.
# protocol-details: Cytotoxicity against mouse NIH/3T3 cells after 96 hrs by SRB assay
# Type: cell-based, NIH3T3
# condition-parameters: Mus musculus, NIH3T3, 96 h; read-out: EC50
Entry rule: numbers only, all in µM.

Prompt line: Requested read-out: EC50. Entry: `C=C(C)[C@@H]1CC[C@]2(C(=O)NO)CC[C@]3(C)[C@H](CC[C@@H]4[C@@]5(C)CC[C@H](O)C(C)(C)[C@@H]5CC[C@]43C)[C@@H]12`
Response line: 2

Prompt line: Requested read-out: EC50. Entry: `C=C(C)[C@@H]1CC[C@]2(C(=O)N(C)OC)CC[C@]3(C)[C@H](CC[C@@H]4[C@@]5(C)CC[C@H](OC(C)=O)C(C)(C)[C@@H]5CC[C@]43C)[C@@H]12`
Response line: 17.4

====

For each record, write down the corresponding EC50.
# protocol-details: Cytotoxicity against mouse NIH/3T3 cells after 96 hrs by SRB assay
# Format: cell-based, NIH3T3
# condition-parameters: Mus musculus, NIH3T3, 96 h; read-out: EC50

Prompt line: Requested read-out: EC50. Entry: `C=C(C)[C@@H]1CC[C@]2(COC(=O)Nc3ccccc3)CC[C@]3(C)[C@H](CC[C@@H]4[C@@]5(C)CC[C@H](O)C(C)(C)[C@@H]5CC[C@]43C)[C@@H]12`
Response line: 14.3 µM

Prompt line: Requested read-out: EC50. Entry: `C=C(C)[C@@H]1CC[C@]2(COC(=O)NCCCC)CC[C@]3(C)[C@H](CC[C@@H]4[C@@]5(C)CC[C@H](OC(C)=O)C(C)(C)[C@@H]5CC[C@]43C)[C@@H]12`
Response line: > 30 µM

Prompt line: Requested read-out: EC50. Entry: `C=C(C)[C@@H]1CC[C@]2(COC(=O)Nc3ccccc3)CC[C@]3(C)[C@H](CC[C@@H]4[C@@]5(C)CCC(=O)C(C)(C)[C@@H]5CC[C@]43C)[C@@H]12`
Response line: > 30 µM

====

# protocol-details: Cytotoxicity against mouse NIH/3T3 cells after 96 hrs by SRB assay
# Format: cell-based, NIH3T3
# condition-parameters: Mus musculus, NIH3T3, 96 h; read-out: EC50
measurement-label: pEC50
// pEC50 here means minus log10 of the molar concentration (mol/L)

Prompt line: Requested read-out: pEC50. Entry: `C=C(C)[C@@H]1CC[C@]2(C(=O)NOC)CC[C@]3(C)[C@H](CC[C@@H]4[C@@]5(C)CCC(=O)C(C)(C)[C@@H]5CC[C@]43C)[C@@H]12`
Response line: 4.90

Prompt line: Requested read-out: pEC50. Entry: `C=C(C)[C@@H]1CC[C@]2(C(=O)NOC)CC[C@]3(C)[C@H](CC[C@@H]4[C@@]5(C)CC[C@H](O)C(C)(C)[C@@H]5CC[C@]43C)[C@@H]12`
Response line: 4.82

Prompt line: Requested read-out: pEC50. Entry: `C=C(C)[C@@H]1CC[C@]2(COC(=O)NCCCC)CC[C@]3(C)[C@H](CC[C@@H]4[C@@]5(C)CC[C@H](O)C(C)(C)[C@@H]5CC[C@]43C)[C@@H]12`
Response line: 5.24

Prompt line: Requested read-out: pEC50. Entry: `C=C(C)[C@@H]1CC[C@]2(C(=O)N(C)OC)CC[C@]3(C)[C@H](CC[C@@H]4[C@@]5(C)CC[C@H](O)C(C)(C)[C@@H]5CC[C@]43C)[C@@H]12`
Response line: 5.11

====

# protocol-details: Cytotoxicity against mouse NIH/3T3 cells after 96 hrs by SRB assay
# Assay type: cell-based, NIH3T3
# condition-parameters: Mus musculus, NIH3T3, 96 h; read-out: EC50
For each record, write down the corresponding EC50.

Prompt line: Requested read-out: EC50. Entry: `C=C(C)[C@@H]1CC[C@]2(COC(=O)NCCCCCC)CC[C@]3(C)[C@H](CC[C@@H]4[C@@]5(C)CC[C@H](OC(=O)NCCCCCC)C(C)(C)[C@@H]5CC[C@]43C)[C@@H]12`
Response line: > 30 µM

Prompt line: Requested read-out: EC50. Entry: `C=C(C)[C@@H]1CC[C@]2(COC(=O)NCCCCCC)CC[C@]3(C)[C@H](CC[C@@H]4[C@@]5(C)CC[C@H](O)C(C)(C)[C@@H]5CC[C@]43C)[C@@H]12`
Response line: > 30 µM

Prompt line: Requested read-out: EC50. Entry: `C=C(C)[C@@H]1CC[C@]2(C(N)=O)CC[C@]3(C)[C@H](CC[C@@H]4[C@@]5(C)CCC(=O)C(C)(C)[C@@H]5CC[C@]43C)[C@@H]12`
Response line: 17.7 µM

====

# protocol-details: Cytotoxicity against mouse NIH/3T3 cells after 96 hrs by SRB assay
# Assay type: cell-based, NIH3T3
# condition-parameters: Mus musculus, NIH3T3, 96 h; read-out: EC50
measurement-label: EC50 (µM)
Entry rule: numbers only, all in µM.

Prompt line: Requested read-out: EC50. Entry: `C=C(C)[C@@H]1CC[C@]2(C(N)=O)CC[C@]3(C)[C@H](CC[C@@H]4[C@@]5(C)CC[C@H](OC(C)=O)C(C)(C)[C@@H]5CC[C@]43C)[C@@H]12`
Response line: 20

Prompt line: Requested read-out: EC50. Entry: `C=C(C)[C@@H]1CC[C@]2(C(=O)NOC)CC[C@]3(C)[C@H](CC[C@@H]4[C@@]5(C)CC[C@H](OC(C)=O)C(C)(C)[C@@H]5CC[C@]43C)[C@@H]12`
Response line: 9.5

Prompt line: Requested read-out: EC50. Entry: `C=C(C)[C@@H]1CC[C@]2(C(N)=O)CC[C@]3(C)[C@H](CC[C@@H]4[C@@]5(C)CC[C@H](O)C(C)(C)[C@@H]5CC[C@]43C)[C@@H]12`
Response line: 10.7
